Target: RNA2 (A bulge of the miR-18a precursor)
Assay: Fluorescence-based binding affinity measurement
Experimental: FIG. 7: Secondary structures of the nucleic acids to which the binding of small molecule 4 was assessed. […] RNA1 contains the U bulge present in the Dicer processing site common to miR-17, -18a and -20a. RNA2 contains the A bulge that is present in miR-18a. RNA3 contains the G bulge present in miR-17 and miR-20a. Binding affinities (Kd's) are indicated in parentheses and are reported in micromolar. Mutation of the U bulge to an AU pair (RNAC) eliminates binding (Kd>100 μM). […]
OBSERVABLE: Kd (µM)
One number for each entry, in µM.

Returns the measured Kd for the input compound. Input: CN1CCN(c2ccc(-c3ccc4nc(-c5cc(C(C)(C)C)c(OCCCC(=O)NCCCN=[N+]=[N-])c(C(C)(C)C)c5)[nH]c4c3)cc2)CC1 32

----------
Target: RNA1 (5′G_U/3′CUA U bulge of Dicer sites in miR-17, -18a and -20a)
Assay: Fluorescence-based binding affinity measurement
Parameters: species or system human
OBSERVABLE: pKd
Answers are plain numbers, as −log10 of the molar value.

Query for RNA1 (5′G_U/3′CUA U bulge of Dicer sites in miR-17, -18a and -20a): what pKd does the record show for CN1CCN(c2ccc(-c3ccc4nc(-c5cc(C(C)(C)C)c(OCCCC(=O)NCCCN=[N+]=[N-])c(C(C)(C)C)c5)[nH]c4c3)cc2)CC1 ? 4.52

----------
Biological target: 4IL1 RNA
Experiment: Competitive binding assay with 4-FL
Settings: RNA 4IL1, competitive binding with 4-FL; read-out: Binding affinity
OBSERVABLE: pKd
Numbers only, as −log10 of the molar value.

Returns the measured pKd for the input compound. Input: CN1CCN(c2ccc(-c3ccc4nc(-c5cc(C(C)(C)C)c(OCCCC(=O)NCCCN=[N+]=[N-])c(C(C)(C)C)c5)[nH]c4c3)cc2)CC1 5.26

----------
Biological target: selected RNA motifs
Experiment: In solution fluorescence-based binding affinity measurement
Conditions: read-out: Average Kd of Selected RNA Binders
Procedure: Bound RNA motifs for each compound were harvested from the array surface, amplified, and identified by using high throughput sequencing (RNA-seq). Highly abundant RNAs in the sequencing data were then subjected to binding measurements. Typically, those RNAs that were highly enriched bound to the small molecules with affinities (Kds) that ranged from 1 to 10 μM (FIG. 2 and Table 1) while binding to the starting libraries was not saturable. […]
Please go through the items and note down their pKd.
One number for each entry, as −log10 of the molar value.

Observe how each entry below is paired with its result.
[[record]]
smi = "CN1CCN(c2ccc(-c3ccc4nc(-c5cc(C(C)(C)C)c(OCCCC(=O)NCCCN=[N+]=[N-])c(C(C)(C)C)c5)[nH]c4c3)cc2)CC1"
target_under_test = "selected RNA motifs"
observable = "pKd"
reported_measurement = 4.96

[[record]]
smi = "CC(C)c1cc(-c2nc3ccc(-c4ccc(N5CCN(C)CC5)cc4)cc3[nH]2)cc(C(C)C)c1OCCCC(=O)NCCCN=[N+]=[N-]"
target_under_test = "selected RNA motifs"
observable = "pKd"
reported_measurement = 5.10

[[record]]
smi = "Cc1cc(-c2nc3ccc(-c4ccc(N5CCN(C)CC5)cc4)cc3[nH]2)cc(C)c1OCCCC(=O)NCCCN=[N+]=[N-]"
target_under_test = "selected RNA motifs"
observable = "pKd"
reported_measurement = 5.15


Shifting focus to the molecule that follows.
Returns the measured pKd for the input molecule. Input: CN1CCN(c2ccc(-c3ccc4nc(-c5ccc(OCCCC(=O)NCCCN=[N+]=[N-])cc5)[nH]c4c3)cc2)CC1 4.80

The reported measurements were obtained from patent US12527788B2.
